molecular target: ACAT 2 (Acyl CoA-Cholesterol Acyltransferase 2) (Rattus norvegicus, UniProt Q7TQM4); construct: Briefly hepatic microsomes were prepared from the Wistar rats; from tissue; host or cells: liver (hepatic microsomes) of Wistar rats; experiment: In-vitro determination of inhibition of ACAT 2 (hepatic microsomes, [14C]-Palmitoyl CoA); assay type: biochemical, Wistar rats; details: first ACAT 2 table
Sequence (Q7TQM4 whole entry): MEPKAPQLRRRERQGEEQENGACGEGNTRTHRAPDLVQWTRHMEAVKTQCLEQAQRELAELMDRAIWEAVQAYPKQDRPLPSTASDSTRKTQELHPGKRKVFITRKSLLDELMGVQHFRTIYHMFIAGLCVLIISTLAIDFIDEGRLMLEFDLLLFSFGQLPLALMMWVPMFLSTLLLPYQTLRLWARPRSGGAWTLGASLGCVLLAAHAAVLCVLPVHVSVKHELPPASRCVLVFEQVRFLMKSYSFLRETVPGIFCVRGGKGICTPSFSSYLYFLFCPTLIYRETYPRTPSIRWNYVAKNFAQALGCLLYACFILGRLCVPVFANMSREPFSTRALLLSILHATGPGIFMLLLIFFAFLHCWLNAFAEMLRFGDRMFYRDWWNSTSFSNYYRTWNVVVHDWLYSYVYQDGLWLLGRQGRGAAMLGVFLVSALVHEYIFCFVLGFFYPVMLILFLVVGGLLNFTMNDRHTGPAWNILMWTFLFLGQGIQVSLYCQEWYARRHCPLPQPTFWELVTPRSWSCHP
Kindly supply the reported pIC50 values for the records listed here.
Numbers only, as −log10 of the molar value.

C[C@@H]1[C@@H](c2ccccc2)C(C(=O)NN2CCCCC2)=NN1c1ccc(Cl)cc1Cl (racemic)	5.89

Provide each entry's pIC50 from the list below.
1. C[C@@H]1[C@@H](c2ccccc2)C(C(=O)NN2CCCCC2)=NN1c1ccc(Cl)cc1Cl.Cl (racemic) [Example 2, Hydrochloride]
2. CC1C(c2ccccc2)C(C(=O)O)=NN1c1ccc(Cl)cc1Cl (stereo not shown)
3. CC[C@H](C)C(=O)O[C@H]1C[C@@H](C)C=C2C=C[C@H](C)[C@H](CC[C@@H]3C[C@@H](O)CC(=O)O3)[C@H]21 [Lovastatin, reference compound]

1. 5.85
2. 6.09
3. 4.64

The measured values listed here are drawn from patent US20100099712A1.
